Origin of the recorded values: patent US8044094B2

Molecular target: human serotonin re-uptake transporter (hSERT) (Homo sapiens, UniProt P31645)
Sequence (P31645 whole entry): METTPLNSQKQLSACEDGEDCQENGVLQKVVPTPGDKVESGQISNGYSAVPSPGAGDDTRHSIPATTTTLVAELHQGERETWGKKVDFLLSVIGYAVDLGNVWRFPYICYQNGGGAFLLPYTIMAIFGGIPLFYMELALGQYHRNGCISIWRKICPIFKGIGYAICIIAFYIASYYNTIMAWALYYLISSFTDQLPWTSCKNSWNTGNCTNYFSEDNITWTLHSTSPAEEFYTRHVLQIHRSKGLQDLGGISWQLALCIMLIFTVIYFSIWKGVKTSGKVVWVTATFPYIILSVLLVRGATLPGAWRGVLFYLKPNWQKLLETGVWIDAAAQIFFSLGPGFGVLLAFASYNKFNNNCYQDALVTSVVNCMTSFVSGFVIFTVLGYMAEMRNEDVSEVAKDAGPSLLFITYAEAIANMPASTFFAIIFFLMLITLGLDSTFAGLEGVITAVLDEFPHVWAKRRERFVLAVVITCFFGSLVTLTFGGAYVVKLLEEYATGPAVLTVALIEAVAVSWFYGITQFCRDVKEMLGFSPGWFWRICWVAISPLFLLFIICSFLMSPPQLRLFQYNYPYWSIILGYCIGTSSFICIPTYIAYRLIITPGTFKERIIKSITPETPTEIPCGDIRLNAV
Assay: Serotonin uptake inhibition in HEK-293 cells stably expressing hSERT
Type: cell-based
observation_type: pKi
pKi here: minus log base 10 of the concentration, concentration in moles per litre.

Qu. What value of pKi has been reported for the following molecule? `C/C(=C\COc1ccc2ccc(=O)oc2c1)C1=CC(=O)C(C)(C)O1`
Ans. 5.15

---

Molecular target: human serotonin re-uptake transporter (hSERT) (Homo sapiens, UniProt P31645)
Experiment: Labeled citalopram displacement from hSERT containing membranes (SPA)
Format: binding
Settings: hSERT containing membranes; Ki from IC50 by Cheng-Prusoff; 3.3 nM (3H) citalopram; read-out: Inhibition constant Ki for tritiated citalopram displacement
observation_type: Ki

Recorded results for 2 molecules are shown here.
molecule=COc1cc2oc(=O)ccc2cc1CC=C(C)C study_system="human serotonin re-uptake transporter (hSERT) (Homo sapiens, UniProt P31645)" observation_type=Ki reported_result="39.3 µM"
molecule="CC(=O)OC(C)(C)[C@@H]1Cc2c(ccc3ccc(=O)oc23)O1 [(S)—O-Acetylcolumbianetin]" study_system="human serotonin re-uptake transporter (hSERT) (Homo sapiens, UniProt P31645)" observation_type=Ki reported_result="11.6 µM"

# ---- query molecule ----
Qu. Entry `CC1(C)C=Cc2cc3ccc(=O)oc3cc2O1` has what Ki?
Ans. 11.9 µM
